Kindly supply the reported inhibition values for the records listed here.
System: Hepatitis C virus NS3 helicase
Test: blockers of NS3h binding to ssDNA – biochemical, fluorescence polarization, LOPAC1280 library, primary screen (AID 687035)
Conditions: Purified HCV NS3 helicase, Cy5-dT15 ssDNA binding fluorescence polarization; hits give high values; concentration not given here
Give the value, in units of %, as a plain number.

q: Endpoint output: inhibition of Cc1cccc(C)c1NC(=O)C(C)N (stereo not drawn) . Value?
a: -5

q: Please look up its inhibition: `Cc1cc(N)c2ccccc2[n+]1CCCCCCCCCC[n+]1c(C)cc(N)c2ccccc21`
a: 2

q: State the recorded inhibition for this entry: CN(C)CCC(c1ccccc1)c1ccccn1 (stereo not drawn)
a: -1

q: Recorded inhibition for OCc1cc(C(O)CNCCCCCCOCCCCc2ccccc2)ccc1O (stereo not drawn) , please?
a: 2

q: Value lookup for inhibition; key = `CN(C)CC[C@@H](c1ccc(Cl)cc1)c1ccccn1`
a: -6

q: // query inhibition value for entry `CC(=O)[C@]1(O)Cc2c(O)c3c(c(O)c2[C@@H](O[C@H]2C[C@H](N)[C@H](O)[C@H](C)O2)C1)C(=O)c1ccccc1C3=O`
a: -1

q: Please give the measured inhibition for this compound: `COC(=O)[C@@H]1[C@H]2C[C@H]3c4[nH]c5ccccc5c4CCN3C[C@@H]2CC[C@@H]1O`
a: 0

q: What value of measured inhibition is listed for `CN1CCN(C2=Nc3ccccc3Oc3ccc(Cl)cc32)CC1` ?
a: -3

q: Form field: reported inhibition of `C[C@](N)(Cc1ccc(O)c(O)c1)C(=O)O`
a: -3

q: Reported inhibition for `CN(C)CCCN1c2ccccc2Sc2ccc(C(F)(F)F)cc21` : what is it?
a: -5

q: Requested field: inhibition. Item: CCn1cc(C(=O)O)c(=O)c2cc(F)c(N3CCNC(C)C3)c(F)c21 (stereo not drawn)
a: -1

q: Quick check: inhibition of `C#CCN(C)Cc1ccccc1` ?
a: -3

q: Dear colleague, I am looking for the recorded inhibition of the following compound: `Cc1scc2c1N(C(=O)CN1CCN(C)CC1)c1ccccc1NC2=O`
a: -3

q: Please give the measured inhibition for this compound: `Brc1c(NC2=NCCN2)ccc2nccnc12`
a: -3

q: Report inhibition for `NC(=O)NO` please.
a: -3

q: Query: inhibition; subject: `COC(=O)Nc1nc2ccc(C(=O)c3cccs3)cc2[nH]1`
a: -5

q: Record request: inhibition value, item `NC[C@H](O)c1ccc(O)c(O)c1`
a: -4

q: Requested read-out: inhibition. Entry: `O=c1c(O)c(-c2ccc(O)c(O)c2)oc2cc(O)cc(O)c12`
a: 2

q: What value of inhibition has been recorded for this entry: `CCN(CC)CCOCCOC(=O)C1(c2ccccc2)CCCC1`
a: 0

q: Which inhibition reading was recorded for the compound `CC(=O)Oc1ccccc1C(=O)O` ?
a: -3

q: Which measured inhibition value corresponds to `Cc1cnc(NC(=O)C2=C(O)c3ccccc3S(=O)(=O)N2C)s1` ?
a: -4

q: # input compound: `CNC[C@H](O)c1cccc(O)c1` ; wanted: its inhibition
a: -1

q: Which inhibition reading was recorded for the compound `CCOC(=O)C(C)(C)Oc1ccc(Cl)cc1` ?
a: -5

q: Find the recorded inhibition belonging to `O=C(O)CCCCCCCC(=O)O` and report it.
a: 0

q: Any idea what its inhibition is? The compound is `C[N+]1(CCCCC[N+]2(C)CCCC2)CCCC1`
a: 4

q: Reported inhibition, compound `NC1CCN(c2cccc(Cl)n2)CC1` : ____
a: -6

q: Any idea what its inhibition is? The compound is COc1cc2nc(N3CCN(C(=O)C4CCCO4)CC3)nc(N)c2cc1OC (stereo not drawn)
a: -3

q: Name the recorded inhibition for `CS(=O)(=O)Nc1ccc([N+](=O)[O-])cc1Oc1ccccc1` .
a: -3

q: Could you share which inhibition value was measured for `c1cnc(N2CCN(Cc3ccc4c(c3)OCO4)CC2)nc1` ?
a: -1

q: Recorded inhibition of `Clc1ccccc1C(c1ccccc1)(c1ccccc1)n1ccnc1` , please.
a: -2

q: Given the entry CCC1(C)CC(=O)NC1=O (stereo not drawn) , report its measured inhibition.
a: 0

q: Requested field: inhibition. Item: `O=C(NCCN1CCOCC1)c1ccc(Cl)cc1`
a: -6

q: Field request: inhibition | item: `O=C(Nc1ccc([N+](=O)[O-])cc1Cl)c1cc(Cl)ccc1O`
a: -2

q: Need inhibition, item `O=c1c(-c2ccc(O)cc2)coc2cc(O)cc(O)c12`
a: -1

q: What value of inhibition has been recorded for this entry: `CC1(C)NC(=O)N(c2ccc([N+](=O)[O-])c(C(F)(F)F)c2)C1=O`
a: -2

q: Any idea what its inhibition is? The compound is Cc1cccc(C)c1OCC(C)N (stereo not drawn)
a: -2

q: Which inhibition reading was recorded for the compound `COC(=O)[C@H]1[C@H]2C[C@@H]3c4[nH]c5cc(OC)ccc5c4CCN3C[C@H]2C[C@@H](OC(=O)c2cc(OC)c(OC)c(OC)c2)[C@@H]1OC` ?
a: -4

q: Query: inhibition; subject: `O=C(CCNNC(=O)c1ccncc1)NCc1ccccc1`
a: -4

q: Sample CCCCCN(CCCCC)C(=O)C(CCC(=O)O)NC(=O)c1ccc(Cl)c(Cl)c1 (stereo not drawn) — what was its inhibition?
a: -5

q: I have this compound here, CCN(CC)C(C)CN1c2ccccc2Sc2ccccc21 (stereo not drawn) , and I need its recorded inhibition.
a: -1

q: Look at this compound and give its reported inhibition. `CN(C)[C@@H]1C(=O)C(C(N)=O)=C(O)[C@@]2(O)C(=O)C3=C(O)c4c(O)ccc(Cl)c4[C@@H](O)[C@H]3C[C@@H]12`
a: -3

q: // query inhibition value for entry `CCN(CC)CCNC(=O)c1ccc(NC(C)=O)cc1`
a: -3

q: Which measured inhibition value corresponds to `CCn1cc(C(=O)O)c(=O)c2cc3c(cc21)OCO3` ?
a: -1

q: # inhibition lookup, item `Cc1cc(C(C)(C)C)c(O)c(C)c1CC1=NCCN1`
a: -6

q: Look up inhibition for this compound: CC(CN(C)C)CN1c2ccccc2CCc2ccccc21 (stereo not drawn)
a: -4

q: Look at this compound and give its reported inhibition. `CCN1CCC[C@H]1CNC(=O)c1c(O)c(Cl)cc(Cl)c1OC`
a: -2

q: Query (compound): `COc1cc(C(=O)OCCCN2CCCN(CCCOC(=O)c3cc(OC)c(OC)c(OC)c3)CC2)cc(OC)c1OC` ; field requested: inhibition
a: -3

q: Can you share its inhibition? I mean this compound: CNC1(C)C2CCC(C2)C1(C)C (stereo not drawn)
a: 0
